Data provenance: patent US8076338B2

assay.target: AktK (Homo sapiens, UniProt P31749)
Sequence (P31749 whole entry): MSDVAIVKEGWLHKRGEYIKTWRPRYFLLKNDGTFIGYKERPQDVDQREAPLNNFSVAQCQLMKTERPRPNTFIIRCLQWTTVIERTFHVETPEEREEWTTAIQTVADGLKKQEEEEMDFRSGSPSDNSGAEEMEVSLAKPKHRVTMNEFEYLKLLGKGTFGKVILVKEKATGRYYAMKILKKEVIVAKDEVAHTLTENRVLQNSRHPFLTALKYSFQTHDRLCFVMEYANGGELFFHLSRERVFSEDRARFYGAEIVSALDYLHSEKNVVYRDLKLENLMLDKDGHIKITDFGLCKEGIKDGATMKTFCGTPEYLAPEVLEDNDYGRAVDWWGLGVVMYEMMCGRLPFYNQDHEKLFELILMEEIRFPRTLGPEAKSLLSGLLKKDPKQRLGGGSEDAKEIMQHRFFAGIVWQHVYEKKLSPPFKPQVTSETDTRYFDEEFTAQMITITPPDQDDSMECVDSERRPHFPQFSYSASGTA
test.description: Luciferase-coupled chemiluminescence kinase assay (ATP consumption)
Format: biochemical
condition: Table 1; class symbols per key; read-out: AKT-1 IC50
quantity.measured: IC50

Previously resolved entries follow.
smiles.code | IC50
CCc1n[nH]c2ncnc(N3CCN(c4cccc(OC)c4)CC3)c12 | ≥ 10000 nM
CCc1n[nH]c2ncnc(N3CCN(c4cc(OCC(C)C)cc(NCCN5CCCC5)c4C)CC3)c12 | < 100 nM
Cc1c(NCCN2CCCC2)cc(C#Cc2ccccc2)cc1N1CCN(c2ncnc3[nH]nc(Br)c23)CC1 | 100 to 1000 nM
Cc1c(NCCN2CCCC2)cc(OC(C)C)cc1N1CCN(c2ncnc3[nH]nc(Br)c23)CC1 | < 100 nM
COCCOc1cc(NCCN2CCCC2)c(C)c(N2CCN(c3ncnc4[nH]nc(Br)c34)CC2)c1 | 100 to 1000 nM

Problem: Tell me the measured IC50 of Cc1c(NCCN2CCCC2)cc(C(=O)NC(C)C)cc1N1CCN(c2ncnc3[nH]nc(Br)c23)CC1 , please.
Solution: < 100 nM

Problem: If you can, please state the reported IC50 value of Cc1cccc(COc2cccc(N3CCN(c4ncnc5[nH]nc(Br)c45)CC3)c2)c1 .
Solution: ≥ 10000 nM

Problem: Report IC50 for Cc1c(CCCN2CCOCC2)cc(Cl)cc1N1CCN(c2ncnc3[nH]nc(Br)c23)CC1 please.
Solution: 100 to 1000 nM

Problem: // IC50 lookup, key: Cc1c(CCCN2CCCC2)cc(Cl)cc1N1CCN(c2ncnc3[nH]nc(C#CCO)c23)CC1
Solution: < 100 nM

Problem: Requested read-out: IC50. Entry: Cc1c(NCCN2CCCC2)cc(OCC2CCC2)cc1N1CCN(c2ncnc3[nH]nc(Br)c23)CC1
Solution: < 100 nM

Problem: Which IC50 is listed for Cc1c(NCCN2CCCC2)cc(COCC(F)(F)F)cc1N1CCN(c2ncnc3[nH]nc(Br)c23)CC1 ?
Solution: < 100 nM

Problem: So what does the record say about IC50 for Brc1n[nH]c2ncnc(N3CCN(c4nccnc4OCCN4CCCCC4)CC3)c12 ?
Solution: 1000 to 10000 nM

Problem: Which IC50 is reported for this molecule? Cc1c(OCCN2CCCC2)cc(Cl)cc1N1CCN(c2ncnc3[nH]nc(C4CC4)c23)CC1
Solution: 1000 to 10000 nM

Problem: Entry Cc1c(CCCN2CCCCC2)cc(Cl)cc1N1CCN(c2ncnc3[nH]nc(C(F)(F)F)c23)CC1 : reported IC50 = ?
Solution: 100 to 1000 nM

Problem: Consider the molecule shown here: Fc1ccc(N2CCN(c3ncnc4[nH]nc(Br)c34)CC2)cc1 What is its recorded IC50?
Solution: ≥ 10000 nM

###

assay.target: p70S6K (Homo sapiens, UniProt P23443)
Sequence (P23443 whole entry): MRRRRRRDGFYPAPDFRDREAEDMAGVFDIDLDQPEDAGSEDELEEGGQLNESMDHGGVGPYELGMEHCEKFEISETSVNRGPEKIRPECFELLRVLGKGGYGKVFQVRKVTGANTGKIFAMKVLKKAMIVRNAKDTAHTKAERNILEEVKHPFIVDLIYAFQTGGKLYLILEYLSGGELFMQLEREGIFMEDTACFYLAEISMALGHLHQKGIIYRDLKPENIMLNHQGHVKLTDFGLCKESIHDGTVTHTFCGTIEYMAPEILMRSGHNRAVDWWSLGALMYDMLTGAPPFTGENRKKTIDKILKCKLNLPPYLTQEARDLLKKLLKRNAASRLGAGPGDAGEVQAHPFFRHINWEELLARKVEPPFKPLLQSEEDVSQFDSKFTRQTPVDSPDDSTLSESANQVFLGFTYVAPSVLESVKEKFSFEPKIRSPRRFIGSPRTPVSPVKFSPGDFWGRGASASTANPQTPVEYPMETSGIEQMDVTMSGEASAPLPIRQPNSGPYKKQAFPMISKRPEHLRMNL
test.description: Luciferase-coupled chemiluminescence kinase assay (ATP consumption)
Assay type: biochemical
condition: Table 1; class symbols per key
quantity.measured: IC50

Example entries and their recorded answers appear below.
compound | assay.target | IC50
Cc1c(NCCN2CCCC2)cc(OCC2CC2(F)F)cc1N1CCN(c2ncnc3[nH]nc(Br)c23)CC1 (stereo not shown) [Entry 270] | p70S6K (Homo sapiens, UniProt P23443) | < 100 nM
Fc1cc(NCCN2CCCC2)c(Cl)c(N2CCN(c3ncnc4[nH]nc(Br)c34)CC2)c1 [Entry 129] | p70S6K (Homo sapiens, UniProt P23443) | < 100 nM
Cc1c(NCCN2CCCC2)cc(OCC(F)(CF)CF)cc1N1CCN(c2ncnc3[nH]nc(Br)c23)CC1 [Entry 230] | p70S6K (Homo sapiens, UniProt P23443) | < 100 nM
Cc1c(NCCN2CCCC2)cc(CC[Si](C)(C)C)cc1N1CCN(c2ncnc3[nH]nc(Br)c23)CC1 [Entry 246] | p70S6K (Homo sapiens, UniProt P23443) | < 100 nM
Cc1c(NCCN2CCCC2)cc(C(=O)Nc2ccc(Cl)cc2)cc1N1CCN(c2ncnc3[nH]nc(Br)c23)CC1 [Entry 203] | p70S6K (Homo sapiens, UniProt P23443) | < 100 nM
Cc1ccc(-c2cccc(F)c2OCCN2CCCC2)cc1N1CCN(c2ncnc3[nH]nc(Br)c23)CC1 [Entry 282] | p70S6K (Homo sapiens, UniProt P23443) | < 100 nM
Cc1c(OCCCN2CCCCC2)cc(Cl)cc1N1CCN(c2ncnc3[nH]nc(Br)c23)CC1 [Entry 37] | p70S6K (Homo sapiens, UniProt P23443) | < 100 nM
Cc1c(OCCCN2CCCC2)cc(Cl)cc1N1CCN(c2ncnc3[nH]nc(Br)c23)CC1 [Entry 84] | p70S6K (Homo sapiens, UniProt P23443) | < 100 nM

Problem: Tell me reported IC50 for O=[N+]([O-])c1ccccc1N1CCN(c2ncnc3[nH]nc(Br)c23)CC1 [Entry 121] , tested with p70S6K (Homo sapiens, UniProt P23443).
Solution: 100 to 1000 nM
